Tested on: OVCAR-8 ovarian
ASSAY_NOTES: NCI-60 one-dose screen, 48 h
ASSAY_CONDITIONS: 10 µM unless noted
The panel holds about 83,000 compounds, 20% with a hit somewhere; the sample as a whole holds those more often. Calls of active or inactive are those of the source. The calls were made as follows: active = growth percent below 10; inactive = the rest.
Parameter call: string, one of active, inactive

Hello, I am checking results. What call was entered for O=C(CCN1CCCCC1)c1ccc(Cl)cc1 ? inactive

Hello, I am checking results. What call was entered for CCN1CCN(CC(=O)Nc2nc3ccc(NCc4ccc(Cl)cc4)cc3s2)CC1 ? inactive

Hello, I am checking results. What call was entered for O=C1COCCN1c1ccc(NCc2cn(Cc3ccc(F)cc3)c3ccccc23)cc1 ? inactive

Hello, I am checking results. What call was entered for Cn1cc(-c2noc(-c3cn(C)c4ncccc34)n2)c2cc(Cl)ccc21 ? inactive

Hello, I am checking results. What call was entered for CN(C)c1cc(NN=C(c2ccc(O)cc2)c2ccc(O)cc2)c([N+](=O)[O-])cc1[N+](=O)[O-] ? active

Hello, I am checking results. What call was entered for c1ccc(-c2nc(N3CCCNCC3)c3nc(-c4ccccc4)oc3n2)cc1 ? inactive

Hello, I am checking results. What call was entered for COc1cc(NCc2cn(-c3ccc(C(=O)O)cc3)nc2-c2ccc(C(=O)O)cc2)cc(OC)c1OC ? inactive

Hello, I am checking results. What call was entered for Ic1ccc2[nH]cc(SSc3c[nH]c4ccc(I)cc34)c2c1 ? inactive

Hello, I am checking results. What call was entered for COc1ccc(/C=C/C(=C/c2c(O)[nH]c3cc(Br)ccc23)N=O)cc1 ? inactive

Hello, I am checking results. What call was entered for COc1ccc2nc3ccccc3c(NCCNCCO)c2c1 ? active

====

Tested on: SK-MEL-2 melanoma
ASSAY_NOTES: NCI-60 one-dose screen, 48 h
ASSAY_CONDITIONS: 10 µM unless noted
Protocol: Growth inhibition of the SK-MEL-2 human tumor cell line is measured as a screen for anti-cancer activity. Cells are grown in 96 well plates and exposed to the test compound for 48 hours. Compounds are tested at a single concentration, which is 10^-5 M for most compounds. The reported endpoint is percent growth (GI% or GIPRCNT), where numbers from 0 - 100% represent growth inhibition, and numbers from -100% - 0 represent cell death. For example, a value of 40 represents 60% growth inhibition. […]
Compounds without any hit were thinned out: in the full panel of roughly 83,000, 20% have a hit. Calls of active or inactive are those of the source. Rule for the calls: active = growth percent below 10; inactive = the rest.
Parameter call: string, one of active, inactive

Hello, I am checking results. What call was entered for COc1cc(NN=C(c2ccc(O)cc2)c2ccc(O)cc2)c([N+](=O)[O-])cc1[N+](=O)[O-] ? active

Hello, I am checking results. What call was entered for CCC(Br)(CC)C(=O)c1ccc(OCC(=O)O)c(Cl)c1Cl ? inactive

Hello, I am checking results. What call was entered for N#C/C(C(=O)c1ccccc1)=C1/C(=O)Nc2ccc(Br)cc21 ? inactive

Hello, I am checking results. What call was entered for Cc1ccc(Oc2c(/C=N/NC(=O)Cn3c(=O)sc4ccccc43)c(C)nn2-c2ccccc2)cc1 ? inactive

Hello, I am checking results. What call was entered for C=CCCCCCCCCC(=O)OC(C)C ? inactive

Hello, I am checking results. What call was entered for CC(C)(C)c1cc(C(=O)N2CCC(C(=O)NCCN)CC2)cc(C(C)(C)C)c1 ? inactive

Hello, I am checking results. What call was entered for C=C(C)[C@@H]1CC[C@]2(C(=O)O)CC[C@]3(C)[C@H](CC[C@@H]4[C@@]5(C)C/C(=C/c6ccco6)C(=O)C(C)(C)[C@@H]5CC[C@]43C)[C@@H]12 ? active

Hello, I am checking results. What call was entered for CCOC(=O)C(C(C)=O)c1nc2sc3cc(Cl)c(Cl)cc3n2c(=O)c1C#N (centres undefined) ? inactive

Hello, I am checking results. What call was entered for O=C(CCN1CCCCC1)c1ccc(Cl)cc1 ? inactive

====

Tested on: NCI-H460 lung
ASSAY_NOTES: NCI-60 one-dose screen, 48 h (100 = growth as untreated, 0 = no growth, -100 = all killed)
ASSAY_CONDITIONS: 10 µM unless noted
The panel holds about 83,000 compounds, 20% with a hit somewhere; the sample as a whole holds those more often.
What growth was measured for each of the following?
Enter your answer as a number in %; do not include the unit.

Kindly indicate its recorded growth. Item: COc1ccc(NC(=O)Nc2ccc(-c3cccnc3)cc2N2CCC(CO)CC2)cc1 60.1

Kindly indicate its recorded growth. Item: CCN(CC)c1ccc2cc(C(Nc3ccc(C)cc3)c3nnnn3C(C)(C)C)c(=O)oc2c1 (stereo unspecified) 91.9

Kindly indicate its recorded growth. Item: C#CC(OC(=O)N(C)C)(c1ccccc1)c1ccc(F)cc1 (stereo unspecified) 96.7

Kindly indicate its recorded growth. Item: O=c1cc(-c2ccccc2)oc2c(O)c(O)ccc12 17.3

Kindly indicate its recorded growth. Item: CCN1CCN(CC(=O)Nc2nc3ccc(NCc4ccc(Cl)cc4)cc3s2)CC1 54.7

Kindly indicate its recorded growth. Item: Nc1cc(Cl)cc2cccnc12 112

Kindly indicate its recorded growth. Item: COc1ccc(/C=C/C(=C/c2c(O)[nH]c3cc(Br)ccc23)N=O)cc1 108

Kindly indicate its recorded growth. Item: Cc1ccccc1OC(=O)c1cccc(Cl)c1 109

Kindly indicate its recorded growth. Item: O=[N+]([O-])c1ccc(O)c(-c2nc3ccccc3s2)c1 63.2

Kindly indicate its recorded growth. Item: CCOC(=O)c1nn(C2CCCCO2)c2ccc(NC(=O)Cn3nnc4ccccc43)cc12 (stereo unspecified) 100

Kindly indicate its recorded growth. Item: COC(=O)[C@H](CC(C)C)NC(=O)NC(=O)NC(=O)CI 85.9

====

System: HS 578T breast
ASSAY_NOTES: NCI-60 one-dose screen, 48 h
ASSAY_CONDITIONS: 10 µM unless noted
The panel holds about 83,000 compounds, 20% with a hit somewhere; the sample as a whole holds those more often. The source made the active and inactive calls. The calls were made as follows: active = growth percent below 10; inactive = the rest.
Parameter call: string, one of T for active, F for inactive

Hello, I am checking results. What call was entered for CN(C)CCCNc1nc(-c2cccc(C(Cl)(Cl)Cl)c2)nc(C(Cl)(Cl)Cl)n1 ? F

Hello, I am checking results. What call was entered for C=C(CN=[N+]=[N-])[C@@H]1CC[C@]2(C)[C@H](CC[C@@H]3[C@H]4[C@H]5OC(=O)[C@@]4(CCC5(C)C)CC[C@]32C)[C@@]1(C)CCC#N ? F

Hello, I am checking results. What call was entered for N/C(=N\c1nc2ccccc2[nH]1)NC(=O)Cc1cccc2ccccc12 ? F

Hello, I am checking results. What call was entered for CC1(C)CC[C@]2(C(=O)OC(=O)[C@]34CCC(C)(C)C[C@@H]3C3=CC[C@@H]5[C@@]6(C)CCC(=O)C(C)(C)[C@@H]6CC[C@@]5(C)[C@]3(C)CC4)CC[C@]3(C)C(=CC[C@@H]4[C@@]5(C)CCC(=O)C(C)(C)[C@@H]5CC[C@]43C)[C@H]2C1 ? F

Hello, I am checking results. What call was entered for Cc1nc(Cl)cc(N(c2cc(Cl)nc(C)n2)c2ncc(C(=O)Nc3c(C)cccc3Cl)s2)n1 ? T

Hello, I am checking results. What call was entered for CC(C)[N+](C)(C)CC(O)COc1cccc2ccccc12 (configuration not stated) ? F

Hello, I am checking results. What call was entered for C[C@]12CCc3c(ccc4cc(O)ccc34)[C@@H]1CC[C@H]2O ? F

====

System: UACC-62 melanoma
ASSAY_NOTES: NCI-60 one-dose screen, 48 h
ASSAY_CONDITIONS: 10 µM unless noted
About 83,000 compounds went through this panel and 20% of them were active in at least one assay; those are over-represented in the sample as a whole. Active and inactive are the calls of the source. Rule for the calls: active = growth percent below 10; inactive = the rest.
Parameter call: string, one of True = active, False = inactive

Hello, I am checking results. What call was entered for COc1ccc2[nH]c(C(=O)N3CCN(C(=O)OCc4ccc5c(Br)cc(Br)c(O)c5n4)CC3)cc2c1 ? True

Hello, I am checking results. What call was entered for Nc1cc(NN=C(c2ccc(O)cc2)c2ccc(O)cc2)c([N+](=O)[O-])cc1[N+](=O)[O-] ? False

Hello, I am checking results. What call was entered for O=S(=O)(NCCCNc1nccc(-c2c(-c3cccc(F)c3)nc3occn23)n1)c1cccc2ccccc12 ? False

Hello, I am checking results. What call was entered for CC(=O)OC[C@]12CC[C@@H]([C@@H](C)C(N)=O)[C@@H]1[C@H]1CC[C@@H]3[C@@]4(C)CC[C@H](OC(C)=O)C(C)(C)[C@@H]4CC[C@@]3(C)[C@]1(C)CC2 ? True

Hello, I am checking results. What call was entered for COCCCNc1nc(NC(=O)c2cc(OC)cc(OC)c2)cc(-c2cccnc2)n1 ? False

Hello, I am checking results. What call was entered for CC1Cc2c(Cl)ncnc2N(C)c2ccc(Cl)cc21 (stereo not given) ? False

Hello, I am checking results. What call was entered for C=CCCCCOc1ccccc1-c1cnc(OCCCCC=C)n1C ? False

Hello, I am checking results. What call was entered for Nc1nc(Nc2ccccc2)c2ncn(Cc3cc4c(cc3Br)OCO4)c2n1 ? False

Hello, I am checking results. What call was entered for CC1Cc2c(ncnc2-n2cnc3ccccc32)N(C)c2ccccc21 (stereo not given) ? False

Hello, I am checking results. What call was entered for O=c1[nH]c2cc(Cl)c(Cl)cc2n2cc3ncccc3c12 ? False

Hello, I am checking results. What call was entered for CCCSc1nc(N)nc2nc[nH]c12 ? False

Hello, I am checking results. What call was entered for CSc1nc2c(c(=O)n1C)C1(C(=O)N(Cc3ccccc3)c3ccccc31)c1c(nc(SC)n(C)c1=O)N2 ? False

Hello, I am checking results. What call was entered for O=C1Nc2ccccc2/C1=C/C(=O)c1ccc(N2CCCC2)cc1 ? False

Hello, I am checking results. What call was entered for Ic1ccc2[nH]cc(SSc3c[nH]c4ccc(I)cc34)c2c1 ? False

Hello, I am checking results. What call was entered for CC(C)c1ccc(C(=O)Nc2sc3c(c2C#N)CCC(=O)C3)cc1 ? True

Hello, I am checking results. What call was entered for O=C(O)c1cc([N+](=O)[O-])ccc1Br ? False

Hello, I am checking results. What call was entered for CN(C)CCCNc1nc(-c2cccc(C(Cl)(Cl)Cl)c2)nc(C(Cl)(Cl)Cl)n1 ? False

Hello, I am checking results. What call was entered for Cc1cc(C)c(O)c(CNCCCNCc2cc(C)cc(C)c2O)c1 ? False

Hello, I am checking results. What call was entered for Nc1cc(N)c(N=Nc2ccc(S(=O)(=O)O)cc2)cc1N=Nc1ccc(-c2ccc(N=Nc3ccc(O)c(C(=O)O)c3)cc2)cc1 ? False

Hello, I am checking results. What call was entered for CCOC(=O)c1nn(C2CCCCO2)c2ccc(NS(=O)(=O)c3ccc(C)cc3)cc12 (stereo not given) ? False
